Below: a set of entries, each annotated with reported inhibition.
- System under test: Adenosine receptor A2b (Homo sapiens)
- Sequence (whole entry): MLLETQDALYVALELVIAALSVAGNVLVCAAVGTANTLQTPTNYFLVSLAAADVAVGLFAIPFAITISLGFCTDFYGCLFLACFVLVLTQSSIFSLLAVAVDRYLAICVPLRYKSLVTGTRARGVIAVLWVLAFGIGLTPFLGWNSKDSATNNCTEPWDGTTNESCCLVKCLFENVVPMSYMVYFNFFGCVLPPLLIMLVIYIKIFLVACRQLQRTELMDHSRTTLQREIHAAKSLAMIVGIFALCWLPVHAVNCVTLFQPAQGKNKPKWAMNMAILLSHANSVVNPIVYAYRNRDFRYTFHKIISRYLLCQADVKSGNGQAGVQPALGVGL
- Test summary: Antagonist activity at human A2B adenosine receptor expressed in CHO cells assessed as inhibition of NECA-induced cAMP accumulation at 10 uM after 20 mins
- Assay type: functional, cell-based
Readout name: inhibition (%)

smiles_code=O=C(COc1ccc2c(c1)CCC2)Nc1nc(-c2ccccc2)n[nH]1 recorded_measurement=9
smiles_code=O=C(COc1ccccc1)Nc1nc(-c2ccc(F)cc2)n[nH]1 recorded_measurement=-10
smiles_code=O=C(COCc1ccccc1)Nc1nc(-c2ccccc2)n[nH]1 recorded_measurement=7
smiles_code=Cc1ccc(-c2n[nH]c(NC(=O)COc3ccccc3)n2)cc1 recorded_measurement=23
smiles_code=C[C@@H](Oc1ccc(Cl)cc1)C(=O)Nc1nc(-c2ccccc2)n[nH]1 recorded_measurement=51
smiles_code=CCCC(=O)Nc1nc(-c2ccccc2)n[nH]1 recorded_measurement=5
smiles_code=O=C(Nc1nc(-c2ccccc2)n[nH]1)c1ccc(Cl)cc1 recorded_measurement=-2
smiles_code=Cc1cccc(O[C@H](C)C(=O)Nc2nc(-c3ccccc3)n[nH]2)c1 recorded_measurement=18
smiles_code=Cc1ccc(O[C@H](C)C(=O)Nc2nc(-c3ccccc3)n[nH]2)cc1 recorded_measurement=-6
smiles_code=CCC(=O)Nc1nc(-c2ccccc2)n[nH]1 recorded_measurement=8
